Target: B-Raf(V599E) kinase (Homo sapiens, UniProt P15056, V600E)
Sequence (P15056 with tags, fused parts or gaps V600E): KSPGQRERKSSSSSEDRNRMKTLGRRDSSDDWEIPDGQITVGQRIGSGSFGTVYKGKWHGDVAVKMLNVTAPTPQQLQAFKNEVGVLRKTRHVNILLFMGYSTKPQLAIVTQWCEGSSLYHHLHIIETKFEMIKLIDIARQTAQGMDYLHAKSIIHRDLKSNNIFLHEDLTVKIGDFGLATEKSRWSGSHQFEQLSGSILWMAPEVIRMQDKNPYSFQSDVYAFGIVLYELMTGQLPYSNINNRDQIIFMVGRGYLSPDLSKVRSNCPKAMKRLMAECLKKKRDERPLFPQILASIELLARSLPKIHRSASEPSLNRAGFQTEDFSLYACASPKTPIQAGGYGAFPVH
Test: B-Raf(V599E) kinase assay B1 (construct 1, MEK1 substrate, coupled spectrophotometric)
Type: biochemical
result.type: pIC50
Numbers only, as −log10 of the molar value.

// worked examples, pIC50 included
- compound: "CC(C)(C)c1cc(NC(=O)Nc2cc(F)c(F)cc2F)n(-c2ccc3c(c2)CCC(=O)N3)n1"
  assay.value: 8.47
- compound: "CC(C)(C)c1cc(NC(=O)Nc2cccc(Cl)c2Cl)n(-c2cccc(CC(=O)N3CCC[C@@H]3C(=O)O)c2)n1"
  assay.value: 7.72
- compound: "CC(C)(C)c1cc(NC(=O)Nc2cccc(Cl)c2Cl)n(-c2cccc(CC(=O)N3CCS(=O)(=O)CC3)c2)n1"
  assay.value: 7.49

Dear reader, for each entry below, please note its pIC50.
1. CC(C)(C)c1cc(NC(=O)Nc2cccc(F)c2F)n(-c2ccc(CCO)cc2)n1
2. CC(C)(C)c1cc(NC(=O)Nc2ccc(F)cc2F)n(-c2cccc(CC(=O)O)c2)n1
3. CC(C)(C)c1cc(NC(=O)Nc2cccc(Cl)c2Cl)n(-c2cccc(C(N)=O)c2)n1
4. CC(C)(C)c1cc(NC(=O)Nc2cc(F)cc(F)c2F)n(-c2ccc3ncccc3c2)n1
5. CN(C)CCc1cccc(-n2nc(C(C)(C)C)cc2NC(=O)Nc2cccc(Cl)c2Cl)c1

1. 7.47
2. 7.82
3. 8.28
4. 8.32
5. 8.06

====

Biological target: Abl kinase (Homo sapiens)
Sequence (P00519 229-512): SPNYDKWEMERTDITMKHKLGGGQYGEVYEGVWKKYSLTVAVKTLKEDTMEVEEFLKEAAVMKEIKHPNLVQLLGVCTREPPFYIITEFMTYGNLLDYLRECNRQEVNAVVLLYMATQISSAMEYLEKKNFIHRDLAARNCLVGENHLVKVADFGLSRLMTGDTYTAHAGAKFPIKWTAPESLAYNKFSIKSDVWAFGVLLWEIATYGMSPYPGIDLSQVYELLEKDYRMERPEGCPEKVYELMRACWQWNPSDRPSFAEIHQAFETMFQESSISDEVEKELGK
Experiment: Abl kinase assay A2 (as A1, 1.1 nM enzyme, 2 h pre-incubation, 0.5 mM ATP)
Format: biochemical
Conditions: Method A2; read-out: Abl Data (IC50)
result.type: pIC50
Give bare numbers, as −log10 of the molar value.

- molecule: "CNC(=O)c1cc(Oc2ccc(NC(=O)Nc3cc(C(C)(C)C)nn3-c3ccc4nc(N)ccc4c3)cc2)ccn1"
  result.type: "pIC50"
  assay.value: 8.55

Dear reader, for each entry below, please note its pIC50.
1. CNC(=O)c1cc(Oc2ccc(NC(=O)Nc3cc(C(C)(C)C)nn3-c3ccc4nc(NCCN)ccc4c3)cc2)ccn1
2. CC(C)(C)c1cc(NC(=O)Nc2cccc(Oc3cccnc3)c2)n(-c2cc(CC(=O)NCC(O)CO)c3ccccc3c2)n1 (centres unmarked)
3. CNC(=O)C1NCCc2cc(-n3nc(C(C)(C)C)cc3NC(=O)Nc3cccc(Oc4cccnc4)c3)ccc21 (centres unmarked)
4. CC(C)(C)c1cc(NC(=O)Nc2cccc(Oc3cccnc3)c2)n(-c2ccc3c(c2)CCNC3C(=O)NCC(O)CO)n1 (centres unmarked)
5. CC(C)(C)c1cc(NC(=O)Nc2cccc(C#N)c2)n(-c2ccc3c(c2)CCNC3)n1
6. Cc1ccc(NC(=O)Nc2cc(C(C)(C)C)nn2-c2cccc(CC(=O)NCC(O)CO)c2)cc1Nc1ncccn1 (centres unmarked)
7. CC(C)(C)c1cc(NC(=O)Nc2cccc(Cl)c2Cl)n(-c2ccc3c(=O)[nH]cnc3c2)n1

1: 8.72; 2: 8.82; 3: 8.05; 4: 8.00; 5: 6.85; 6: 5.85; 7: 6.27

====

Target: phosphorylated p-38-alpha kinase (Homo sapiens, UniProt Q16539)
Sequence (Q16539 1-360 isoform Q16539-2): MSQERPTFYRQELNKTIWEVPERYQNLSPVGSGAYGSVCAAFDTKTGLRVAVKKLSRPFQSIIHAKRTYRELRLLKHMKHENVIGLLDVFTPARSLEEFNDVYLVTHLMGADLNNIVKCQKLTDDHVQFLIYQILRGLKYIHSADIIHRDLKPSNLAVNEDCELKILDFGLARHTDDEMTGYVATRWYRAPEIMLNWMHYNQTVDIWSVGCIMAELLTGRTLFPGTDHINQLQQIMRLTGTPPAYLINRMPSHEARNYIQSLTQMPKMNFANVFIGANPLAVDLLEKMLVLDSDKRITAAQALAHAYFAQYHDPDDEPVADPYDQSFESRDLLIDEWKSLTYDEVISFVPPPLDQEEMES
Assay: P-38 alpha kinase assay P1 (coupled spectrophotometric, 2 h pre-incubation)
Format: biochemical
Conditions: method P1 (2 h pre-incubation); read-out: P-38 Data
// boundary case: IC50 equal to 20 nM maps to false (0); strictly smaller maps to true (1)

Check out these entries, answers already filled in.
- compound: "O=C(Cc1cccc(-n2nc(-c3ccccc3F)cc2NC(=O)N[C@H]2CCc3ccccc32)c1)NCCO [Example 412]"
  label: "false (0)"
- compound: "CC(C)(C)c1cc(NC(=O)Nc2cccc(Cl)c2Cl)n(-c2ccc3c(c2)CCN3)n1 [Example 106]"
  label: "true (1)"
- compound: "COc1cccc(-n2nc(C(C)(C)C)cc2NC(=O)Nc2cccc(F)c2F)c1 [Example 236]"
  label: "false (0)"
- compound: "CC(C)(C)c1cc(NC(=O)Nc2cccc(Cl)c2Cl)n(-c2ccc(CC(=O)NCC(O)CO)cc2)n1 (centres unmarked) [Example 493]"
  label: "true (1)"
- compound: "CC(C)(C)c1cc(NC(=O)Nc2cccc(Cl)c2Cl)n(-c2ccc3c(c2)NCC3)n1 [Example 112]"
  label: "true (1)"

Does COc1cccc(-n2nc(C(C)(C)C)cc2NC(=O)Nc2ccccc2F)c1 [Example 235] have IC50 strictly under 20 nM?
false (0)

Next up: CC(C)(C)c1cc(NC(=O)Nc2cccc(Cl)c2Cl)n(-c2cccc(CC(=O)N3CCC[C@@H]3CO)c2)n1 [Example 407]
false (0)

Next up: CC(C)(C)c1cc(NC(=O)Nc2ccc(F)c(F)c2F)n(-c2ccc(CC(N)=O)cc2)n1 [Example 466]
false (0)

Next up: O=C(Cc1ccc(-n2nc(-c3cccs3)cc2NC(=O)N[C@H]2CCc3ccccc32)cc1)NCCO [Example 490]
false (0)

Next up: CC(=O)N1CCc2ccc(-n3nc(C(C)(C)C)cc3NC(=O)Nc3cccc(Cl)c3Cl)cc2C1 [Example 126]
true (1)

Next up: CC(C(N)=O)c1ccc(-n2nc(C(C)(C)C)cc2NC(=O)Nc2cccc(Cl)c2Cl)cc1 (centres unmarked) [Example 203]
true (1)

Next up: COc1cccc(-n2nc(C(C)(C)C)cc2NC(=O)Nc2ccc(Cl)cc2Cl)c1 [Example 233]
false (0)

Next up: CC(=O)c1cc(-n2nc(C(C)(C)C)cc2NC(=O)Nc2cccc(Cl)c2Cl)cc2ccccc12 [Example 100]
true (1)

Next up: O=C(Cc1ccc(-n2nc(-c3cccc(F)c3)cc2NC(=O)Nc2cccc(Cl)c2Cl)cc1)NCC(O)CO (centres unmarked) [Example 481]
false (0)

Next up: CC(C)(C)c1cc(NC(=O)Nc2cccc(Cl)c2Cl)n(-c2ccc3c(c2)CC(C(N)=O)NC3)n1 (centres unmarked) [Example 188]
true (1)

Next up: CO[C@@H]1CCN(C(=O)Cc2cccc(-n3nc(C(C)(C)C)cc3NC(=O)Nc3cccc(Cl)c3Cl)c2)C1 [Example 444]
false (0)

Next up: CNC(=O)C1NCCc2cc(-n3nc(C(C)(C)C)cc3NC(=O)Nc3cccc(Cl)c3Cl)ccc21 (centres unmarked) [Example 204]
true (1)

====

Biological target: UniProt:P00519
Experiment: Abl kinase assay A1 (pyruvate kinase/lactate dehydrogenase coupled, spectrophotometric)
Format: biochemical
Settings: Method A1; read-out: Abl Data (IC50)
result.type: IC50 (nM)
Numbers only, in nM.

- structure.as.smiles: "CC(C)(C)c1cc(NC(=O)Nc2cccc(Cl)c2Cl)n(-c2cccc(CC(=O)NCCO)c2)n1"
  u: "nM"
  assay.value: 1400

Dear reader, for each entry below, please note its IC50.
1. CC(C)(C)c1cc(NC(=O)Nc2cccc(Cl)c2Cl)n(-c2cccc(CC(=O)O)c2)n1
2. CC(C)(C)c1cc(NC(=O)Nc2cccc(Cl)c2Cl)n(-c2ccc3c(c2)CN[C@H](C(N)=O)C3)n1
3. CC(C)(C)c1cc(NC(=O)Nc2ccc(F)c(F)c2F)n(-c2cc(CC(N)=O)c3ccccc3c2)n1
4. CC(C)(C)c1cc(NC(=O)Nc2cccc(Cl)c2Cl)n(-c2cc(CO)c3ccccc3c2)n1
5. Cc1ccc(NC(=O)Nc2cc(C(C)(C)C)nn2-c2ccc3c(c2)CCNC3)cc1Nc1ncccn1
6. CC(C)(C)c1cc(NC(=O)Nc2cccc(Cl)c2Cl)n(-c2cccc(-c3cccnc3)c2)n1

[3500, 230, 79, 63, 170, 2300]

====

What log10(IC50) was measured for each of the following?
Target: phosphorylated p-38-alpha kinase (Homo sapiens)
Assay: P-38 alpha kinase assay P1 (coupled spectrophotometric, 2 h pre-incubation)
Assay type: biochemical
Conditions: method P1 (2 h pre-incubation); read-out: P-38 Data
Values reflect log10 of reported IC50 (nM).

- molecule: "CC(C)(C)c1ncc(NC(=O)Nc2cccc(Cl)c2Cl)c(-c2ccccc2)n1"
  experimental.system: "phosphorylated p-38-alpha kinase (Homo sapiens)"
  log10(IC50): 3.02

Dear reader, for each entry below, please note its log10(IC50).
1. CC(C)(C)c1cc(NC(=O)Nc2cccc(Cl)c2Cl)n(-c2ccc3c(c2)C(=O)NCC3)n1
2. CC(C)(C)c1cc(NC(=O)Nc2cccc(Cl)c2Cl)n(-c2cccc(CC(=O)NCC(O)CO)c2)n1 (centres unmarked)
3. CC(C)(C)c1cc(NC(=O)Nc2cccc(Oc3cccnc3)c2)n(-c2cccc(-c3cccnc3)c2)n1
4. CC(C)(C)c1cc(NC(=O)Nc2cccc(Cl)c2Cl)n(-c2ccc(C(C)(C)O)cc2)n1
5. CC(C)(C)c1cc(NC(=O)Nc2cccc(Cl)c2Cl)n(-c2ccc3c(c2)CCN3S(C)(=O)=O)n1
6. CC(C)(C)c1cc(NC(=O)Nc2cccc(Cl)c2Cl)n(-c2cccc(CO)c2)n1
7. O=C(O)Cc1cccc(-n2nc(-c3cccs3)cc2NC(=O)Nc2ccc(F)c(F)c2F)c1

2.11
0.85
2.26
1.78
0.95
1.04
1.85
